Test: Gravimetric water solubility by TGA
Format: physicochemical
Details: thermodynamic from solid; deionized water, ambient; TGA gravimetric or visual dissolution; XRPD Form A; read-out: Estimated Water Solubility
metric: solubility

Short answer for O=C1c2cccc3[nH]nc(c23)CCN1[C@@H]1CN2CCC1CC2 [Free Form] : solubility was < 2500 µg/mL

---

Test: Gravimetric moisture sorption analysis
Format: physicochemical
Settings: initial Form A
metric: XRPD of dried material following moisture sorption program

Short answer for O=C(O)c1ccc2ccccc2c1O [1-hydroxy-2-napthoic acid] : XRPD of dried material following moisture sorption program was Form B

Short answer for O=C1CCC(C(=O)O)N1 (stereo not shown) : XRPD of dried material following moisture sorption program was Form B
